target under test: Staphylococcus aureus dihydrofolate reductase (SaDHFR), wild type (Staphylococcus aureus, UniProt P0A017)
Sequence (P0A017 2-159): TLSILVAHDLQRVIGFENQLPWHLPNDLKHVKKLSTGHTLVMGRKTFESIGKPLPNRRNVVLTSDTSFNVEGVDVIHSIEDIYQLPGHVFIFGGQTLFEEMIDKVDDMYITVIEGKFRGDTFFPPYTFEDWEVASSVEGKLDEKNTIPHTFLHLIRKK
test name: X-ray crystal structure (ternary with R-27); enzyme inhibition assay with isolated t-NADPH
pIC50: −log10 of the molar value.

[
  {
    "entry smiles": "NC(=O)C1=CN2[C@@H]3O[C@H](COP(=O)(O)OP(=O)(O)OC[C@H]4O[C@@H](n5cnc6c(N)ncnc65)[C@H](OP(=O)(O)O)[C@@H]4O)[C@@H](O)[C@H]3O[C@@H]2CC1",
    "pIC50": 3.95
  }
]

Value source: paper PMC8865654
